# Test system: platelet agregation induced by PAF
# Test Summary: Inhibition of platelet agregation induced by PAF
# Format: cell-based, New Zealand rabbits
# Test Parameters: Oryctolagus cuniculus, New Zealand rabbit platelets, agregometer at 57° C., Table I
Readout Type: log10(IC50) (log10 of the value in nM)
Lab note - IC50 converted to log10 from values in nM.

Solved cases (6 shown):
>>> numeric_readout("C=CCNC(=S)N1CCc2c(sc3c2C(c2ccccc2Cl)=NCc2nnc(C)n2-3)C1")
0.96
>>> numeric_readout("Cc1nnc2n1-c1sc3c(c1C(c1ccccc1Cl)=NC2)CCN(C(=S)Nc1ccc(C(F)(F)F)cc1)C3")
2.34
>>> numeric_readout("Cc1nnc2n1-c1sc3c(c1C(c1ccccc1Cl)=NC2)CCN(C(=O)Nc1ccc(Oc2ccccc2)cc1)C3")
1.52
>>> numeric_readout("Cc1nnc2n1-c1sc3c(c1C(c1ccccc1Cl)=NC2)CCN(C(=S)NCc1ccco1)C3")
1.68
>>> numeric_readout("Cc1nnc2n1-c1sc3c(c1C(c1ccccc1Cl)=NC2)CCN(C(=O)NS(=O)(=O)N1CCOCC1)C3")
0.79
>>> numeric_readout("Cc1nnc2n1-c1sc3c(c1C(c1ccccc1Cl)=NC2)CCN(C(=O)NCc1ccccc1)C3")
1.82

Pending compound:
# input Look up log10(IC50) for this compound: Cc1nnc2n1-c1sc3c(c1C(c1ccccc1Cl)=NC2)CCN(C(=S)NS(=O)(=O)c1ccccc1)C3
# output 1.04

====

# Tested on: platelet agregation induced by PAF
# Test Summary: Inhibition of platelet agregation induced by PAF
# Type: cell-based, New Zealand rabbits
# Test Parameters: Oryctolagus cuniculus, New Zealand rabbit platelets, agregometer at 57° C., Table I
Readout Type: IC50 (nM)
Express your answer in nM, writing the number without its unit.

Solved cases (2 shown):
>>> numeric_readout("Cc1nnc2n1-c1sc3c(c1C(c1ccccc1Cl)=NC2)CCN(C(=S)NS(=O)(=O)c1ccco1)C3 [Example 31]")
8.15
>>> numeric_readout("Cc1nnc2n1-c1sc3c(c1C(c1ccccc1Cl)=NC2)CCN(C(=O)NC(C)(C)C)C3 [Example 3]")
17.1

Pending compound:
# input Look up IC50 for this compound: Cc1nnc2n1-c1sc3c(c1C(c1ccccc1Cl)=NC2)CCN(C(=S)Nc1cnc2ccccc2c1)C3 [Example 25]
# output 182

====

# System: platelet agregation induced by PAF
# Test Summary: Inhibition of platelet agregation induced by PAF
# Type: cell-based, New Zealand rabbits
# Test Parameters: Oryctolagus cuniculus, New Zealand rabbit platelets, agregometer at 57° C., Table I
Quick list: IC50 per entry.
Express your answer in nM, writing the number without its unit.

Solved cases (3 shown):
>>> numeric_readout("Cc1nnc2n1-c1sc3c(c1C(c1ccccc1Cl)=NC2)CCN(C(=S)NS(=O)(=O)c1ccc[nH]1)C3")
205
>>> numeric_readout("Cc1nnc2n1-c1sc3c(c1C(c1ccccc1Cl)=NC2)CCN(C(=S)NC(C)C)C3")
32.8
>>> numeric_readout("Cc1nnc2n1-c1sc3c(c1C(c1ccccc1Cl)=NC2)CCN(C(=S)NCC(C)c1ccccc1)C3 (stereo not shown)")
6.17

# input Look up IC50 for this compound: Cc1nnc2n1-c1sc3c(c1C(c1ccccc1Cl)=NC2)CCN(C(=S)NC(C)Cc1ccccc1)C3 (stereo not shown)
# output 42.5

# input Follow-up entry: Cc1nnc2n1-c1sc3c(c1C(c1ccccc1Cl)=NC2)CCN(C(=S)Nc1ccc(C(C)(C)C)cc1)C3
# output 9.44

# input Follow-up entry: Cc1nnc2n1-c1sc3c(c1C(c1ccccc1Cl)=NC2)CCN(C(=S)NC(C)(C)C)C3
# output 8.82

# input Follow-up entry: Cc1nnc2n1-c1sc3c(c1C(c1ccccc1Cl)=NC2)CCN(C(=S)Nc1cccc(C(F)(F)F)c1)C3
# output 171

# input Follow-up entry: Cc1nnc2n1-c1sc3c(c1C(c1ccccc1Cl)=NC2)CCN(C(=S)Nc1ccc(F)cc1)C3
# output 64

====

# System: bronchospasm induced by the PAF
# Test Summary: Action on the bronchospasm induced by the PAF in anaesthetized guinea-pigs
# Format: in vivo, guinea-pig
# Test Parameters: male Hartley guinea-pigs; oral, 1 hour before PAF i.v.; change versus controls
Quick list: Percentage of action per entry.
Express your answer in %, writing the number without its unit.

>>> numeric_readout("CCCCCCCCCCCCCCCCNC(=S)N1CCc2c(sc3c2C(c2ccccc2Cl)=NCc2nnc(C)n2-3)C1")
-61.6
>>> numeric_readout("Cc1nnc2n1-c1sc3c(c1C(c1ccccc1Cl)=NC2)CCN(C(=O)NC(C)(C)C)C3")
-63.7

# input Look up Percentage of action for this compound: Cc1nnc2n1-c1sc3c(c1C(c1ccccc1Cl)=NC2)CCN(C(=O)Nc1ccc(C(F)(F)F)cc1)C3
# output -38.5

====

# Test System: benzodiazepine receptors
# Test Summary: Inhibition of the binding to benzodiazepine receptors (rat brains)
# Test Parameters: rat brains incubated 1 h 30 at 4° C.; 3H-RO-15-4788 and 3H-RO-5-4864 as tracers; Table I; read-out: BDZ receptors (inhibition of the binding to benzodiazepine receptors)
Readout Type: pIC50
Notebook: values listed as pIC50 are -log10 of the concentration (mol/L).

Solved cases (5 shown):
>>> numeric_readout("COc1cc(NC(=S)N2CCc3c(sc4c3C(c3ccccc3Cl)=NCc3nnc(C)n3-4)C2)cc(OC)c1OC")
5.35
>>> numeric_readout("Cc1nnc2n1-c1sc3c(c1C(c1ccccc1Cl)=NC2)CCN(C(=O)Nc1ccc(C(F)(F)F)cc1)C3")
4.15
>>> numeric_readout("CCCCCCCCCCCCCCCCNC(=S)N1CCc2c(sc3c2C(c2ccccc2Cl)=NCc2nnc(C)n2-3)C1")
4.20
>>> numeric_readout("Cc1nnc2n1-c1sc3c(c1C(c1ccccc1Cl)=NC2)CCN(C(=S)NCc1ccco1)C3")
6.19
>>> numeric_readout("Cc1nnc2n1-c1sc3c(c1C(c1ccccc1Cl)=NC2)CCN(C(=O)NC(C)C)C3")
4.18

# input Look up pIC50 for this compound: Cc1nnc2n1-c1sc3c(c1C(c1ccccc1Cl)=NC2)CCN(C(=S)NS(=O)(=O)c1ccc[nH]1)C3
# output 5.04

# input Follow-up entry: Cc1nnc2n1-c1sc3c(c1C(c1ccccc1Cl)=NC2)CCN(C(=O)NC1CCCCC1)C3
# output 5.70

====

Quick list: pIC50 per entry.
# Test System: benzodiazepine receptors
# Test Summary: Inhibition of the binding to benzodiazepine receptors (rat brains)
# Test Parameters: rat brains incubated 1 h 30 at 4° C.; 3H-RO-15-4788 and 3H-RO-5-4864 as tracers; Table I; read-out: BDZ receptors (inhibition of the binding to benzodiazepine receptors)
Notebook: values listed as pIC50 are -log10 of the concentration (mol/L).

>>> numeric_readout("Cc1nnc2n1-c1sc3c(c1C(c1ccccc1Cl)=NC2)CCN(C(=S)NS(=O)(=O)c1ccnc2ccccc12)C3")
5.66
>>> numeric_readout("Cc1nnc2n1-c1sc3c(c1C(c1ccccc1Cl)=NC2)CCN(C(=S)NC(C)(C)C)C3")
6.87
>>> numeric_readout("Cc1nnc2n1-c1sc3c(c1C(c1ccccc1Cl)=NC2)CCN(C(=S)Nc1ccc(C(F)(F)F)cc1)C3")
5.90
>>> numeric_readout("COc1cc(NC(=O)N2CCc3c(sc4c3C(c3ccccc3Cl)=NCc3nnc(C)n3-4)C2)cc(OC)c1OC")
5.82

# input Look up pIC50 for this compound: Cc1nnc2n1-c1sc3c(c1C(c1ccccc1Cl)=NC2)CCN(C(=S)Nc1ccc(F)cc1)C3
# output 6.15

# input Follow-up entry: Cc1nnc2n1-c1sc3c(c1C(c1ccccc1Cl)=NC2)CCN(C(=O)Nc1cccc(Cl)c1Cl)C3
# output 6.04

# input Follow-up entry: Cc1nnc2n1-c1sc3c(c1C(c1ccccc1Cl)=NC2)CCN(C(=S)NS(=O)(=O)c1ccccc1)C3
# output 6.20

====

# Test System: benzodiazepine receptors
# Test Summary: Inhibition of the binding to benzodiazepine receptors (rat brains)
# Test Parameters: rat brains incubated 1 h 30 at 4° C.; 3H-RO-15-4788 and 3H-RO-5-4864 as tracers; Table I; read-out: BDZ receptors (inhibition of the binding to benzodiazepine receptors)
Quick list: IC50 per entry.

Solved cases (2 shown):
>>> result("Cc1nnc2n1-c1sc3c(c1C(c1ccccc1Cl)=NC2)CCN(C(=O)NS(=O)(=O)N1CCOCC1)C3")
"7250 nM"
>>> result("Cc1nnc2n1-c1sc3c(c1C(c1ccccc1Cl)=NC2)CCN(C(=O)Nc1ccc(C(C)(C)C)cc1)C3")
"5250 nM"

# input Look up IC50 for this molecule: Cc1nnc2n1-c1sc3c(c1C(c1ccccc1Cl)=NC2)CCN(C(=O)NCc1ccccc1)C3
# output 1600 nM

# input Follow-up entry: Cc1nnc2n1-c1sc3c(c1C(c1ccccc1Cl)=NC2)CCN(C(=S)Nc1ccc(C(C)(C)C)cc1C(C)(C)C)C3
# output 630 nM

# input Follow-up entry: Cc1nnc2n1-c1sc3c(c1C(c1ccccc1Cl)=NC2)CCN(C(=O)NS(=O)(=O)c1cccs1)C3
# output 4330 nM

# input Follow-up entry: Cc1nnc2n1-c1sc3c(c1C(c1ccccc1Cl)=NC2)CCN(C(=S)Nc1cnc2ccccc2c1)C3
# output 350 nM

# input Follow-up entry: Cc1nnc2n1-c1sc3c(c1C(c1ccccc1Cl)=NC2)CCN(C(=S)NS(=O)(=O)c1ccco1)C3
# output 615 nM

# input Follow-up entry: Cc1nnc2n1-c1sc3c(c1C(c1ccccc1Cl)=NC2)CCN(C(=S)NC(C)C)C3
# output 7000 nM

# input Follow-up entry: Cc1nnc2n1-c1sc3c(c1C(c1ccccc1Cl)=NC2)CCN(C(=O)Nc1ccc(F)cc1F)C3
# output 220 nM
